Ref: paper PMC7248907

# targetDesc: rhodesain (Trypanosoma brucei rhodesiense, UniProt Q95PM0)
# Construct: made in house; host or cells: Pichia pastoris
# Sequence (Q95PM0 entry or part of it): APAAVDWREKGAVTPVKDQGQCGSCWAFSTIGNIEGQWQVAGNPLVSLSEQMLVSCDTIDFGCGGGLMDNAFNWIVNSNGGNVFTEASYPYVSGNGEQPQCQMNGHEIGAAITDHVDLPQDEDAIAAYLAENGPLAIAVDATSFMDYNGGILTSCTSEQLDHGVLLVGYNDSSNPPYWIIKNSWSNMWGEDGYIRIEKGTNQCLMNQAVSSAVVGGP
# methodSummary: biochemical
# Format: biochemical
# cond: final high-affinity complex; Ki/(1+k3/k4); read-out: Rhod. Ki^* Method 1
assayEndpoint: pKi
Give bare numbers, as −log10 of the molar value.

CC(C)C[C@H](NC(=O)[C@H](Cc1ccccc1)NC1=C(Cl)C(=O)c2ccccc2C1=O)C(=O)O: 7.96

Inquiry: Give pKi for CC(C)C[C@H](NC(=O)[C@H](Cc1ccccc1)NC1=C(C#N)C(=O)c2ccccc2C1=O)C(=O)O tested on rhodesain (Trypanosoma brucei rhodesiense, UniProt Q95PM0).
Reply text: 10.00

---

# targetDesc: cathepsin B (Homo sapiens)
# Construct: purchased Calbiochem, Merck Millipore
# methodSummary: Fluorometric cathepsin B inhibition assay (Cbz-Phe-Arg-AMC)
# Format: biochemical
# cond: read-out: Cath. B Ki
assayEndpoint: pKi
Numbers only, as −log10 of the molar value.

Inquiry: Answer with the recorded pKi of CC(C)C[C@H](NC(=O)[C@H](Cc1ccccc1)NC1=C(C#N)C(=O)c2ccccc2C1=O)C(=O)OCc1ccccc1 only.
Reply text: 5.72

---

# targetDesc: NS3/NS2B protease of the Dengue virus (DENV PR) (Dengue virus type 2, UniProt P29990)
# Construct: the NS3/NS2B protease of the Dengue virus (DENV PR)
# Sequence (P29990 1346-1475): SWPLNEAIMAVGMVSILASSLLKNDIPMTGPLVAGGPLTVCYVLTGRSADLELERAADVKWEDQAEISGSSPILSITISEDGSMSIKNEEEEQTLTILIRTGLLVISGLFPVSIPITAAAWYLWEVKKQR
# Sequence (P29990 1476-1653): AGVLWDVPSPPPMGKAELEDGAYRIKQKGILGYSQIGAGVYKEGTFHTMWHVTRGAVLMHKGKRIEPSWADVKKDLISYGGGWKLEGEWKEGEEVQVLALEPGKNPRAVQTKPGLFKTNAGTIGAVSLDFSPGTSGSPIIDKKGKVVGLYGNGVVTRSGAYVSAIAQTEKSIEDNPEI
# methodSummary: Fluorometric DENV NS2B/NS3 protease assay (Boc-Gly-Arg-Arg-AMC)
# cond: [S] = 100 µM (Boc-Gly-Arg-Arg-AMC)
assayEndpoint: IC50 (µM)
Give bare numbers, in µM.

Inquiry: Answer with the recorded IC50 of CC(C)C[C@H](NC(=O)[C@H](Cc1ccccc1)NC1=C(C#N)C(=O)c2ccccc2C1=O)C(=O)OCc1ccccc1 only.
Reply text: 41

---

# Tested on: T. b. brucei 449 cell line
# methodSummary: T. b. brucei cell survival assay (ATPlite)
# Format: cell-based
# cond: Trypanosoma brucei, 48 h; read-out: EC50 antitrypanosomal activity
# Description: Benzyl ester 2 was tested for its antitrypanosomal activity as described previously. 5. T. b. brucei cell survival assay Toxicity of 2 against trypanosomes ( T. b. brucei 449 cell line) were determined via an ATPlite assay as described previously[13–15] using the cellular ATP levels as a proxy for cell viability. […] The measured values were plotted against the compound concentrations top yield the dose-response curve. The EC 50 values were calculated using GraFit version 5.013 (Erithacus Software Ltd.).
assayEndpoint: pEC50
Give bare numbers, as −log10 of the molar value.

Inquiry: Answer with the recorded pEC50 of CC(C)C[C@H](NC(=O)[C@H](Cc1ccccc1)NC1=C(C#N)C(=O)c2ccccc2C1=O)C(=O)OCc1ccccc1 [Compound 2] only.
Reply text: 6.92

---

Field: Ki. Provide a value for each of the molecules that follow.
# targetDesc: rhodesain (Trypanosoma brucei rhodesiense)
# Construct: made in house; host or cells: Pichia pastoris
# methodSummary: biochemical
# Type: biochemical
# cond: read-out: Rhod. Ki

CC(C)C[C@H](NC(=O)[C@H](Cc1ccccc1)NC1=C(C#N)C(=O)c2ccccc2C1=O)C(=O)OCc1ccccc1: 0.18 µM
CC(C)CC(NC(=O)C(Cc1ccccc1)NC1=C(Cl)C(=O)c2ccccc2C1=O)C(=O)OCc1ccccc1 (stereo not drawn): 2.9 µM

Field: next molecule
Inquiry: Answer with the recorded Ki of COC(=O)[C@H](CC(C)C)NC(=O)[C@H](Cc1ccccc1)NC1=C(C#N)C(=O)c2ccccc2C1=O only.
Reply text: 1.24 µM
